System: Ba/F3 cells expressing L858R/T790M/C797S (EGFR-LTC)
Experiment: Growth inhibition (GI50) of Ba/F3 cells expressing L858R/T790M/C797S (EGFR-LTC), Celltiter glo
Format: cell-based
Conditions: Mus musculus, BaF3, 72 h
Property label: GI50

Molecule	Endpoint value
CCc1cc(Nc2ncc(Br)c(Nc3ccc4nccnc4c3P(C)(C)=O)n2)c(OC)cc1N1CCC(N2CCN(C)CC2)CC1 [Example 192]	1 to 25 nM
CCc1cc(Nc2ncc(Br)c(Nc3cc4c(cc3NS(C)(=O)=O)CCO4)n2)c(OC)cc1N1CCC(N2CCN(C)CC2)CC1 [Example 184]	1 to 25 nM
Cc1cc(Nc2ncc(Br)c(Nc3cc(Cl)ccc3NS(C)(=O)=O)n2)c(Cl)cc1N1CCC(N2CCC(N(C)C)C2)CC1 (stereo not shown) [Example 96]	500 to 2000 nM
COc1cc(N2CCC(N3CCN(C)CC3)CC2)c(C)cc1Nc1ncc(Cl)c(Nc2cc(Cl)ccc2NS(C)(=O)=O)n1 [Example 80]	1 to 25 nM
COc1cc(N2CCC(N3CCN(C)CC3)CC2)c(Cl)cc1Nc1ncc(Br)c(Nc2ccccc2N=S(C)(C)=O)n1 [Example 143]	100 to 500 nM
Cc1cc(Nc2ncc(Cl)c(Nc3cc(Cl)ccc3N(C)S(C)(=O)=O)n2)c(Cl)cc1N1CCC(N2CCCN(C)CC2)CC1 [Example 180]	25 to 100 nM
COc1cc(N2CCC(N3CCN(C)CC3)CC2)c(C)cc1Nc1ncc(Cl)c(Nc2ccccc2CS(C)(=O)=O)n1 [Example 62]	25 to 100 nM

###

Test system: Ba/F3 cells expressing L858R/T790M/C797S (EGFR-LTC)
Assay: Growth inhibition (GI50) of Ba/F3 cells expressing L858R/T790M/C797S (EGFR-LTC), Celltiter glo
Type: cell-based
Conditions: Mus musculus, BaF3, 72 h
Property label: GI50

Molecule	Target desc	Endpoint value
COc1nc(N2CCN(C(C)=O)CC2)ccc1Nc1ncc(Cl)c(Nc2ccc(F)cc2NS(C)(=O)=O)n1	Ba/F3 cells expressing L858R/T790M/C797S (EGFR-LTC)	500 to 2000 nM
COc1cc(N2CCC(N3CCN(C(F)(F)F)CC3)CC2)c(C)cc1Nc1ncc(Br)c(Nc2cc3c(cc2N(C)S(C)(=O)=O)CCO3)n1	Ba/F3 cells expressing L858R/T790M/C797S (EGFR-LTC)	100 to 500 nM
Cc1cc(Nc2ncc(Br)c(Nc3cc4c(cc3NS(C)(=O)=O)CCO4)n2)c(Cl)cc1N1CCC(N2CCCC(N(C)C)C2)CC1 (stereo not drawn)	Ba/F3 cells expressing L858R/T790M/C797S (EGFR-LTC)	25 to 100 nM

###

Test system: Ba/F3 cells expressing L858R/T790M/C797S (EGFR-LTC)
Assay: Growth inhibition (GI50) of Ba/F3 cells expressing L858R/T790M/C797S (EGFR-LTC), Celltiter glo
Assay type: cell-based
Details: Mus musculus, BaF3, 72 h

Compound	GI50
COc1nc(N2CCC(N3CCN(C)CC3)CC2)ccc1Nc1ncc(Cl)c(Nc2cc(Cl)ccc2NS(C)(=O)=O)n1 [Example 81]	500 to 2000 nM
COc1ccc(NS(C)(=O)=O)c(Nc2nc(Nc3cc(Cl)c(N4CCC(N5CCN(C)CC5)CC4)cc3OC)ncc2Cl)c1 [Example 201]	1 to 25 nM
Cc1cc(Nc2ncc(Cl)c(Nc3cc4c(cc3NS(C)(=O)=O)CCO4)n2)c(Cl)cc1N1CCC(N2CCN(C)CC2)CC1 [Example 173]	25 to 100 nM
Cc1cc(Nc2ncc(Cl)c(Nc3cc4c(cc3NS(C)(=O)=O)CCO4)n2)c(Cl)cc1N1CCC(N2CCC(N(C)C)C2)CC1 (stereo not drawn) [Example 210]	25 to 100 nM
COc1cc(N2CCC(N3CCN(C)CC3)CC2)c(C)cc1Nc1ncc(Cl)c(Nc2cc(C(C)C)ccc2NS(C)(=O)=O)n1 [Example 160]	100 to 500 nM
COc1cc(N2CCC(N3CCCC(N(C)C)C3)CC2)c(C)cc1Nc1ncc(Cl)c(Nc2cc3c(cc2NS(C)(=O)=O)CCO3)n1 (stereo not drawn) [Example 218]	100 to 500 nM
COc1cc(N2CCC(N3CCN(C)CC3)CC2)c(C)cc1Nc1ncc(Cl)c(Nc2cc3c(cc2NS(C)(=O)=O)CCO3)n1 [Example 140]	1 to 25 nM
COc1cc(N2CCC(N3CCN(C4CC4)CC3)CC2)c(C)cc1Nc1ncc(Cl)c(Nc2cc3c(cc2N(C)S(C)(=O)=O)CCO3)n1 [Example 266]	100 to 500 nM
COc1cc(N2CCC(N3CCN(C)CC3)CC2)c(Cl)cc1Nc1ncc(Br)c(Nc2cc3c(cc2NS(C)(=O)=O)CCO3)n1 [Example 183]	1 to 25 nM
CN1CCN(C2CCN(c3ccc(Nc4ncc(Cl)c(Nc5ccc6nccnc6c5P(C)(C)=O)n4)cc3F)CC2)CC1 [Example 125]	100 to 500 nM
COc1nc(N2CCC(N3CCN(C)CC3)CC2)c(C)cc1Nc1ncc(Cl)c(Nc2ccc3ncccc3c2NS(C)(=O)=O)n1 [Example 116]	100 to 500 nM
Cc1cc(Nc2ncc(Br)c(Nc3ccccc3N=S(C)(C)=O)n2)c(Cl)cc1N1CCC(N2CCN(C)CC2)CC1 [Example 144]	100 to 500 nM
COc1cc(N2CCC(Nc3ccnn3C)CC2)c(C)cc1Nc1ncc(Cl)c(Nc2cc3c(cc2NS(C)(=O)=O)CCO3)n1 [Example 224]	25 to 100 nM
COc1ccc(NS(C)(=O)=O)c(Nc2nc(Nc3cc(C)c(N4CCC(N5CCC(N(C)C)C5)CC4)cc3OC)ncc2Cl)c1 (stereo not drawn) [Example 235]	100 to 500 nM
COc1nc(C2CCCN(C)CC2)ccc1Nc1ncc(Br)c(Nc2ccc(F)cc2NS(C)(=O)=O)n1 (stereo not drawn) [Example 145]	100 to 500 nM
COc1nc(N2CCC(N3CCN(C)CC3)CC2)c(C)cc1Nc1ncc(Br)c(Nc2cc(Cl)ccc2NS(C)(=O)=O)n1 [Example 86]	1 to 25 nM
COc1cc(N2CCC(N3CCN(C)CC3)CC2)c(C)cc1Nc1ncc(Cl)c(Nc2ccc3c(c2)N(C)CC3)n1 [Example 272]	500 to 2000 nM
Cc1cc(Nc2ncc(Br)c(Nc3cc(Cl)ccc3N(C)S(C)(=O)=O)n2)c(Cl)cc1N1CCC(N2CCC(N(C)C)C2)CC1 (stereo not drawn) [Example 227]	25 to 100 nM
CCc1cc(Nc2ncc(Cl)c(Nc3ccc4nccnc4c3P(C)(C)=O)n2)c(OC)cc1N1CCC(N2CCN(C)CC2)CC1 [Example 190]	25 to 100 nM
COc1cc(N2CCC(N3CCCC(N(C)C)C3)CC2)c(C)cc1Nc1ncc(Br)c(Nc2ccc(F)cc2NS(C)(=O)=O)n1 (stereo not drawn) [Example 39]	1 to 25 nM
Cc1cc(Nc2ncc(Br)c(Nc3ccc(F)cc3NS(C)(=O)=O)n2)c(Cl)cc1N1CCC(N2CCCC(N(C)C)C2)CC1 (stereo not drawn) [Example 45]	25 to 100 nM
COc1cc(N2CCC(N3CCN(C)CC3)CC2)c(Cl)cc1Nc1ncc(Cl)c(Nc2ccc3ncccc3c2NS(C)(=O)=O)n1 [Example 118]	100 to 500 nM
CN1CCN(C2CCN(c3ccc(Nc4ncc(Cl)c(Nc5cc6c(cc5NS(C)(=O)=O)CCO6)n4)c(Cl)c3)CC2)CC1 [Example 221]	25 to 100 nM
COc1cc(N2CCC(N3CCN(C)CC3)CC2)ccc1Nc1ncc(Cl)c(Nc2ccc3c(c2)NCC3)n1 [Example 279]	2000 to 10000 nM
COc1cc(N2CCC(N3CCN(C)CC3)CC2)c(F)cc1Nc1ncc(Br)c(Nc2ccc(F)cc2NS(C)(=O)=O)n1 [Example 146]	100 to 500 nM
COc1cc(N2CCC(N3CCN(C)CC3)CC2)c(Cl)cc1Nc1ncc(Cl)c(Nc2cc(Cl)ccc2NS(C)(=O)=O)n1 [Example 151]	1 to 25 nM
COc1nc(N2CCC(N3CCN(C)CC3)CC2)ccc1Nc1ncc(Cl)c(Nc2cc(Cl)c(Cl)cc2NC(C)=O)n1 [Example 72]	500 to 2000 nM

Source of measurements: patent US20240228458A1
